Molecular target: human PAH with the R408W mutation (Homo sapiens, UniProt P00439, R408W)
Construct: expressed in transfected cells
Sequence (P00439 whole entry R408W): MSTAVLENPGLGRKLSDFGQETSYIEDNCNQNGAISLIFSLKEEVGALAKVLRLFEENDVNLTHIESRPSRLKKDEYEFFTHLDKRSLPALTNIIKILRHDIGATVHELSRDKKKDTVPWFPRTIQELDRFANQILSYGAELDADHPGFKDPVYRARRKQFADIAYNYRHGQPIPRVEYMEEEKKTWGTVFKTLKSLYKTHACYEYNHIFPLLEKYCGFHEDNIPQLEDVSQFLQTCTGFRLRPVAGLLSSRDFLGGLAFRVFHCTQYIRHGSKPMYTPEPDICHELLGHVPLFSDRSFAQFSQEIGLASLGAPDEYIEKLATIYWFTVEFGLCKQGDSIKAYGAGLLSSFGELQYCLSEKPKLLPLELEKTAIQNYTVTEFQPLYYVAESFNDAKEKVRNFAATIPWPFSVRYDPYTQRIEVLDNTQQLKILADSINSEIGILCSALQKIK
Assay: Cell Based Phenylalanine Flux Assay
Conditions: A375 cells expressing human R408W PAH; 24 hrs compound incubation; 13C-Tyrosine by LC-MS; average where tested multiple times; read-out: AC50
AC50 by entry:

CC(C)(O)c1nc(Br)c(C(=O)N2CCc3[nH]cnc3[C@@H]2c2cc3c(Cl)cccn3n2)o1 1000 to 5000 nM
Cc1ccc2c(C(=O)N3CCc4[nH]cnc4[C@H]3c3cc4cccc(F)n4n3)cnn2c1 500 to 1000 nM
Cc1cc(-c2nnc(C(=O)N3CCc4[nH]cnc4[C@@H]3c3cc4c(F)cccn4n3)o2)nn1C > 5000 nM

Lookup: Tell me the measured AC50 of Cc1nc(C(C)(C)F)oc1C(=O)N1CCc2[nH]cnc2[C@H]1c1cc2cccc(Cl)n2n1 , please.
Found: < 500 nM

====

Items are presented alongside their recorded AC50.
Biological target: human PAH with the R408W mutation (Homo sapiens, UniProt P00439, R408W)
Construct: expressed in transfected cells
Assay: Cell Based Phenylalanine Flux Assay
Details: A375 cells expressing human R408W PAH; 24 hrs compound incubation; 13C-Tyrosine by LC-MS; average where tested multiple times; read-out: AC50

// known answers, use as guide
Molecule	AC50
Cc1cccn2nc([C@H]3c4nc[nH]c4CCN3c3ncccn3)cc12 [Example 1619]	1000 to 5000 nM
O=C(c1nnc(C2CCC2)o1)N1CCc2[nH]cnc2[C@@H]1c1cc2cccc(C(F)F)n2n1 [Example 1572]	1000 to 5000 nM
FC(F)c1cccn2nc([C@H]3c4nc[nH]c4CCN3c3ncc(C(F)(F)F)cn3)cc12 [Example 1777]	> 5000 nM

Attention now shifts to the item below.
Lookup: Lab request: please report AC50 under test system human PAH with the R408W mutation (Homo sapiens, UniProt P00439, R408W) for O=C(c1nnc(-c2cnn(C(F)(F)F)c2)o1)N1CCc2[nH]cnc2[C@H]1c1cc2cccc(Cl)n2n1 [Example 1444]
Found: < 500 nM

====

Biological target: human PAH with the R408W mutation (Homo sapiens, UniProt P00439, R408W)
Construct: expressed in transfected cells
Experiment: Cell Based Phenylalanine Flux Assay;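 further: after compound treatment, cells received sepiapterin plus isotope-labelled Phenylalanine for 4 hours, then labelled Tyrosine in the medium was quantified, 10-point 2-fold dilution series run in duplicate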
Settings: A375 cells expressing human R408W PAH; 24 hrs compound incubation; 13C-Tyrosine by LC-MS; average where tested multiple times; read-out: AC50
Documented AC50 across a set of compounds

Below: 5 compounds and their reported AC50.
Compound	AC50
CC(C)(O)c1nc(C(F)F)c(C(=O)N2CCc3[nH]cnc3[C@H]2c2cc3cccc(F)n3n2)o1 [Example 1238]	< 500 nM
Cc1cccn2nc([C@H]3c4nc[nH]c4CCN3C(=O)c3cnn4cc(-c5ccccn5)ccc34)cc12 [Example 1649]	> 5000 nM
O=C(c1cnn2cc(C3CC3)ccc12)N1CCc2[nH]cnc2[C@@H]1c1cc2c(C(F)F)cccn2n1 [Example 1743]	1000 to 5000 nM
Cn1cc(C(=O)N2CCc3[nH]cnc3[C@H]2c2cc3ccccn3n2)c(Cl)n1 [Example 665]	< 500 nM
CC(C)(O)c1nc(Cl)c(C(=O)N2CCc3[nH]cnc3[C@H]2c2cc3c(F)cccn3n2)o1 [Example 756]	< 500 nM

Lookup: Write down the reported AC50 of Cc1nn(C)cc1-c1nnc(C(=O)N2CCc3[nH]cnc3[C@H]2c2cc3cccc(C(F)F)n3n2)o1 [Example 1582] , test system: human PAH with the R408W mutation (Homo sapiens, UniProt P00439, R408W).
Found: 500 to 1000 nM

Lookup: # returns recorded AC50 (system: human PAH with the R408W mutation (Homo sapiens, UniProt P00439, R408W)) for O=C(N1CCc2[nH]cnc2[C@H]1c1cc2ccccn2n1)C(F)(F)C1(O)CCC1 [Example 638]
Found: < 500 nM

Lookup: Give AC50 (human PAH with the R408W mutation (Homo sapiens, UniProt P00439, R408W)) of the following compound: Cc1ccc2cc([C@@H]3c4nc[nH]c4CCN3C(=O)c3ccnn3C(F)F)nn2c1 [Example 1112]
Found: < 500 nM

Lookup: Provide the documented AC50 with human PAH with the R408W mutation (Homo sapiens, UniProt P00439, R408W) as the system for Cc1nc(C(C)(C)F)oc1C(=O)N1CCc2[nH]cnc2[C@@H]1c1cc2c(Cl)cccn2n1 [Example 1277]
Found: < 500 nM

Lookup: Param readout= AC50; system= human PAH with the R408W mutation (Homo sapiens, UniProt P00439, R408W); entry= O=C(c1nnc(-c2ncccc2F)o1)N1CCc2[nH]cnc2[C@@H]1c1cc2c(C(F)(F)F)cccn2n1 [Example 904] ; returns value.
Found: > 5000 nM

Lookup: human PAH with the R408W mutation (Homo sapiens, UniProt P00439, R408W) / AC50 / CC(C)(O)c1nc(C(F)F)c(C(=O)N2CCc3[nH]cnc3[C@H]2c2cc3ccccn3n2)o1 [Example 670] : value?
Found: < 500 nM

Lookup: What reported AC50 corresponds to O=C(c1nnc(-c2ccn(C(F)F)n2)o1)N1CCc2[nH]cnc2[C@H]1c1cc2c(C(F)F)cccn2n1 [Example 1377] on human PAH with the R408W mutation (Homo sapiens, UniProt P00439, R408W)?
Found: < 500 nM

Lookup: Please state recorded AC50 (tested on human PAH with the R408W mutation (Homo sapiens, UniProt P00439, R408W)) of O=C(N1CCc2[nH]cnc2[C@@H]1c1cc2ccccn2n1)C(F)(F)C1(O)CCC1 [Example 639]
Found: 1000 to 5000 nM

Lookup: Form: Entry = Cn1nc(C(F)F)nc1C(=O)N1CCc2[nH]cnc2[C@H]1c1cc2c(F)cccn2n1 [Example 764] | System = human PAH with the R408W mutation (Homo sapiens, UniProt P00439, R408W) | AC50 = ____
Found: 500 to 1000 nM

Lookup: What AC50 appears in the records for this compound with human PAH with the R408W mutation (Homo sapiens, UniProt P00439, R408W)? FC(F)c1nnc(N2CCc3[nH]cnc3[C@H]2c2cc3c(C(F)F)cccn3n2)o1 [Example 1733]
Found: < 500 nM

Lookup: Lab note: need AC50 with human PAH with the R408W mutation (Homo sapiens, UniProt P00439, R408W) for entry CN(C)Cc1ccc2c(C(=O)N3CCc4[nH]cnc4[C@H]3c3cc4c(C(F)(F)F)cccn4n3)cnn2c1 [Example 1546] , please look it up.
Found: 500 to 1000 nM

Lookup: Identify the measured AC50 of Cc1c(-c2nnc(C(=O)N3CCc4[nH]cnc4[C@H]3c3cc4cccc(Cl)n4n3)o2)cnn1C [Example 1208] for human PAH with the R408W mutation (Homo sapiens, UniProt P00439, R408W).
Found: < 500 nM

Lookup: Query for human PAH with the R408W mutation (Homo sapiens, UniProt P00439, R408W): what AC50 does the record show for FC(F)c1nnc(N2CCc3[nH]cnc3[C@H]2c2cc3c(Cl)cccn3n2)o1 [Example 1739] ?
Found: < 500 nM

Lookup: Kindly state the measured AC50 obtained for O=C(c1cnn2cc(C3CC3)ccc12)N1CCc2[nH]cnc2[C@@H]1c1cc2c(Cl)cccn2n1 [Example 1769] with human PAH with the R408W mutation (Homo sapiens, UniProt P00439, R408W).
Found: 1000 to 5000 nM

Lookup: Requested read-out AC50, target or system human PAH with the R408W mutation (Homo sapiens, UniProt P00439, R408W), entry CC(C)(F)c1nnc(C(=O)N2CCc3[nH]cnc3[C@H]2c2cc3c(OC(F)(F)F)cccn3n2)o1 [Example 1726]
Found: 500 to 1000 nM

Lookup: Observed AC50 on human PAH with the R408W mutation (Homo sapiens, UniProt P00439, R408W) for Fc1cccn2nc([C@@H]3c4nc[nH]c4CCN3c3nnc(C(F)F)o3)cc12 [Example 1737] , please.
Found: 500 to 1000 nM

Lookup: AC50 / human PAH with the R408W mutation (Homo sapiens, UniProt P00439, R408W) / CC(C)(F)c1nnc(C(=O)N2CCc3[nH]cnc3[C@@H]2c2cc3cccc(C(F)(F)F)n3n2)o1 [Example 1160]
Found: 1000 to 5000 nM

Lookup: Provide value of AC50 for this record tested with human PAH with the R408W mutation (Homo sapiens, UniProt P00439, R408W): O=C(c1cnn2cc(C3CC3)ccc12)N1CCc2[nH]cnc2[C@H]1c1cc2c(C(F)F)cccn2n1 [Example 1742]
Found: < 500 nM

Lookup: So what AC50 did Cc1ncoc1C(=O)N1CCc2[nH]cnc2[C@@H]1c1cc2cccc(C)n2n1 [Example 1149] get with human PAH with the R408W mutation (Homo sapiens, UniProt P00439, R408W)?
Found: 1000 to 5000 nM

Lookup: Test system human PAH with the R408W mutation (Homo sapiens, UniProt P00439, R408W); read-out AC50; what value for Cc1cccn2nc([C@@H]3c4nc[nH]c4CCN3C(=O)c3nnc(-c4ccn(C(F)(F)F)n4)o3)cc12 [Example 1478] ?
Found: < 500 nM

Lookup: Given the entry Cn1cnc(-c2nc(C(F)F)c(C(=O)N3CCc4[nH]cnc4[C@H]3c3cc4c(F)cccn4n3)o2)c1 [Example 921] , what AC50 was observed with human PAH with the R408W mutation (Homo sapiens, UniProt P00439, R408W)?
Found: < 500 nM

Lookup: Form field - read-out: AC50; system: human PAH with the R408W mutation (Homo sapiens, UniProt P00439, R408W); submitted item: CCOc1cccc2cc([C@H]3c4nc[nH]c4CCN3C(=O)c3ocnc3C(F)F)nn12 [Example 1241]
Found: 1000 to 5000 nM

Lookup: # value lookup — system human PAH with the R408W mutation (Homo sapiens, UniProt P00439, R408W), readout AC50, item Cn1nc(C(F)(F)F)nc1C(=O)N1CCc2[nH]cnc2[C@H]1c1cc2c(Cl)cccn2n1 [Example 1052]
Found: < 500 nM

Lookup: # query: AC50 | item O=C(c1cnco1)N1CCc2[nH]cnc2[C@H]1c1cc2c(F)cccn2n1 [Example 760] | system: human PAH with the R408W mutation (Homo sapiens, UniProt P00439, R408W)
Found: 1000 to 5000 nM

Lookup: API: value(readout= AC50, system= human PAH with the R408W mutation (Homo sapiens, UniProt P00439, R408W), query= COc1cccn2nc([C@@H]3c4nc[nH]c4CCN3C(=O)c3cnn4cc(C5CC5)ccc34)cc12 [Example 1788] )
Found: 500 to 1000 nM

Lookup: Could you share what AC50 was measured for Cc1cccc2cc([C@H]3c4nc[nH]c4CCN3C(=O)c3cnn4cc(N(C)C)ccc34)nn12 [Example 1795] , tested on human PAH with the R408W mutation (Homo sapiens, UniProt P00439, R408W)?
Found: > 5000 nM
